Target: KRAS-G12D protein (Homo sapiens, UniProt P01116, G12D)
Construct: host or cells: Aspc-1 cells
Sequence (P01116 1-188 isoform P01116-2 G12D): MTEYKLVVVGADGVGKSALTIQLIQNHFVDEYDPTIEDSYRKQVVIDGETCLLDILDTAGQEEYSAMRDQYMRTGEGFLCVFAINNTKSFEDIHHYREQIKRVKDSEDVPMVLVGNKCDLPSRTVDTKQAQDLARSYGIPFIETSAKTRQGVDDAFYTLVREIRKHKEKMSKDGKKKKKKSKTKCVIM
Assay: KRAS-G12D protein degradation study in Aspc-1 cells (western blot)
Format: cell-based
Conditions: ASPC1, 24 h, Aspc-1 cells treated with 50 nM compound, 24 hours; read-out: Rate of degradation (KRAS^G12D)
Entries annotated with measured inhibition at 0.05 µM

{"MOLECULE": "C#Cc1c(F)ccc2cc(O)cc(-c3ncc4c(N5CC6CCC(C5)N6)nc(OCC5(CN6CCC(CCN7CCC(c8ccc9c(C%10CCC(=O)NC%10=O)nn(C)c9c8)CC7)CC6)CC5)nc4c3F)c12 (stereo not drawn) [Compound 149]", "inhibition at 0.05 µM": "> 60%"}
{"MOLECULE": "C#Cc1c(F)ccc2cc(O)cc(-c3ncc4c(N5CC6CCC(C5)N6)nc(OCC5(CN6CCC7(CC6)CC(Nc6cccc8c(C9CCC(=O)NC9=O)n[nH]c68)C7)CC5)nc4c3F)c12 (stereo not drawn) [Compound 163]", "inhibition at 0.05 µM": "31 to 60%"}
{"MOLECULE": "C#Cc1c(F)ccc2cc(O)cc(-c3ncc4c(N5CC6CCC(C5)N6)nc(OCC5(CN6CCC(CN7CCN(c8cc9c(cc8F)C(=O)N(C8CCC(=O)NC8=O)C9=O)CC7)CC6)CC5)nc4c3F)c12 (stereo not drawn) [Compound 141]", "inhibition at 0.05 µM": "11 to 30%"}
